# measurement notes: gradient 5% acetonitrile 3 min, to 50% in 2 min, to 85% in 15 min, held 3 min, 100 µL/min
# protocol conditions: column: Zorbax Extend-C18 2.1 x 50 mm; eluents: water / acetonitrile, 0.1% formic acid
property name: RP-LC retention time (s)
Numbers only, in s.

INSERT INTO assay_data (compound, property_name, numeric_readout) VALUES
  ('CC(C)N1CCC(F)(c2nc(-c3ccccc3)no2)CC1', 'RP-LC retention time', 657),
  ('Cc1ccc(S(=O)(=O)N2CC(F)(F)C[C@H]2CN2CCc3ccccc3C2)c(C)c1', 'RP-LC retention time', 816),
  ('COc1ccc(CNC(=O)C2CCN(c3nc(C4CCC4)nc4csc(C)c34)CC2)cc1OC', 'RP-LC retention time', 957),
  ('Cc1ccc(S(=O)(=O)c2ccc([N+](=O)[O-])o2)cc1', 'RP-LC retention time', 873),
  ('COCc1noc(C2CCCCN2C(=O)c2cnccn2)n1 (stereo not given)', 'RP-LC retention time', 596),
  ('Cc1ccc(C)c(CNC(=O)c2nnc(-c3ccc(S(=O)(=O)N4CCC(C)CC4)cc3)o2)c1', 'RP-LC retention time', 1160),
  ('CCCNC(=O)c1cn(-c2ccc(-c3nc(C(C)(C)C)no3)cn2)cn1', 'RP-LC retention time', 931),
  ('Cc1nccn1C1CN(C(=O)C2CCCCC2)C1', 'RP-LC retention time', 572);

Field: RP-LC retention time. Fill in for each record below.
1. COc1ccccc1CCNC(=O)CCCn1cccc1
2. O=S1(=O)C[C@H](N2CCN(c3ccccn3)CC2)[C@@H](S(=O)(=O)c2cccs2)C1

OUTPUT:
[774, 586]
